target: CYP2C19 (Homo sapiens, UniProt P33261); experiment: Inhibition of CYP2C19 (unknown origin) at 10 uM relative to control; type: ADME
Sequence (P33261 whole entry): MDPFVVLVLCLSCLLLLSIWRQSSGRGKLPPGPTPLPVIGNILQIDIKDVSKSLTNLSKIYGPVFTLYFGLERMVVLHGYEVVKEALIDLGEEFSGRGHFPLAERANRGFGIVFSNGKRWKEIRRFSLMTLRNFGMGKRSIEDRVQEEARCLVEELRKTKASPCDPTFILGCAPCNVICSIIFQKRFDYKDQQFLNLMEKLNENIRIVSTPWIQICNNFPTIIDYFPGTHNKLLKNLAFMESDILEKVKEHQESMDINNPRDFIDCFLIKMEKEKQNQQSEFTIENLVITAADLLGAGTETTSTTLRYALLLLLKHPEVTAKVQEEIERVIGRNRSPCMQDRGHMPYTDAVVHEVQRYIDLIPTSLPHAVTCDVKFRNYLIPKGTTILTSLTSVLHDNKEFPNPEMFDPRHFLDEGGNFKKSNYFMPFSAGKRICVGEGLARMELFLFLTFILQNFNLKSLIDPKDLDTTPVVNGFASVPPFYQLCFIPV

smiles entry | inhibition at 10 µM
COc1cc(OC)c2c(=O)cc(-c3cc(C)c(OC[C@H](O)CN4CCN(C)CC4)c(C)c3)oc2c1 | 1.7%

----------
target: Bromodomain-containing protein 4 (Homo sapiens, UniProt O60885); assay: Inhibition of BRD4 in poly(I:C)-stimulated human SAECs TLR3-inducible IL-6 gene expression at 10 uM pre-incubated for 24 hrs before poly(I:C) stimulation for 4 hrs by qRT-PCR analysis relative to control
experimental endpoint: inhibition (%)

smiles entry | readout units | recorded number
COc1cc(OC)c2c(=O)cc(-c3cc(C)c(OC[C@H](O)CN4CCCC4)c(C)c3)oc2c1 | % | 99
COc1cc(-c2nc3ccccc3c(=O)[nH]2)cc(OC)c1O | % | 59
COc1cc(OC)c2c(=O)[nH]c(-c3ccc(O)cc3Cl)nc2c1 | % | 66
